Biological target: S. pyogenes DHFR (Streptococcus pyogenes, UniProt Q9A091)
Sequence (Q9A091 entry or part of it): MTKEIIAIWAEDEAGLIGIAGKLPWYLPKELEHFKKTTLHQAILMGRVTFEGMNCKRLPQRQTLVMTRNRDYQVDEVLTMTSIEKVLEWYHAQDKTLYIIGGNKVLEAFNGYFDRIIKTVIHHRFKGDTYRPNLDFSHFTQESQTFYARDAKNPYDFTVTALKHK
Assay: biochemical
Type: biochemical
Conditions: IC50 (human)/IC50 (pathogen)
Lab note: cut-off is 9. Strictly less in Selectivity (h/Sp) is true. Exactly 9 or more is false.

Reference set, count: 3
q: Determine whether this molecule shows Selectivity (h/Sp) lower than 9 (ties excluded): COc1cc(-c2ccncc2)cc(C(C)C#Cc2c(C)nc(N)nc2N)c1 (stereo not drawn) [Compound 24]
a: false

q: Here's an entry: CCc1nc(N)nc(N)c1C#CCc1cc(OC)cc(-c2ccccc2)c1 [Compound 9] . Is its Selectivity (h/Sp) below 9?
a: true

q: Answer whether the molecule COc1cc(C(C)C#Cc2c(C)nc(N)nc2N)cc(N2CCOCC2)c1 (stereo not drawn) [Compound 31] has Selectivity (h/Sp) strictly less than 9
a: false

New cases:
q: Record CCc1nc(N)nc(N)c1C#CCc1cccc(-c2ccccc2)c1 [Compound 8] : is its Selectivity (h/Sp) strictly below 9?
a: false

q: Consider CCc1nc(N)nc(N)c1C#CCc1cc(-c2ccccc2)ccc1OC [Compound 7] . Does its Selectivity (h/Sp) lie strictly below 9?
a: false

q: Please check: Selectivity (h/Sp) for CCc1nc(N)nc(N)c1C#CC(C)c1cc(-c2ccccc2)ccc1OC (stereo not drawn) [Compound 11] , strictly under 9 or not?
a: true

q: Strictly below 9: is that where Selectivity (h/Sp) of CCc1nc(N)nc(N)c1C#CCc1cc(OC)cc(-c2ccncc2)c1 [Compound 27] sits?
a: true

q: Lab note: confirm whether the reported Selectivity (h/Sp) for this molecule is below 9, equality not counting. molecule: CCc1nc(N)nc(N)c1C#CCc1cccc(-c2ccncc2)c1 [Compound 28]
a: false

q: Hello, is Selectivity (h/Sp) of the following molecule strictly smaller than 9? CCc1nc(N)nc(N)c1C#CCc1cccc(-c2cccnc2)c1 [Compound 36]
a: true

q: Hello, I'm reviewing records and need to know if Selectivity (h/Sp) of CCc1nc(N)nc(N)c1C#CCc1cccc(-c2cncnc2)c1 [Compound 37] is below 9. Could you check?
a: true

q: Would you kindly verify if Selectivity (h/Sp) of CCc1nc(N)nc(N)c1C#CCc1cc(-c2ccncc2)ccc1OC [Compound 26] is strictly less than 9?
a: false

q: Check if Selectivity (h/Sp) falls below 9 for COc1ccc(-c2ccccc2)cc1C(C)C#Cc1c(C)nc(N)nc1N (stereo not drawn) [Compound 10] .
a: true

* * *

Target: S. pyogenes DHFR (Streptococcus pyogenes)
Assay: biochemical
Type: biochemical
Measured Endpoint: IC50 (nM)
Response body: numeric value in nM, unit text excluded.

q: Complete the entry with IC50 for CCc1nc(N)nc(N)c1C#CC(C)c1cc(OC)cc(-c2ccncc2)c1 (stereo not shown)
a: 180

* * *

System: HepG2 cells
Assay: Mammalian cell toxicity (Alamar Blue)
Type: cell-based
Conditions: Homo sapiens, cytotoxicity, 4 h incubation
Measured Endpoint: pIC50
// pIC50: -log10(molar conc.)

// below: answered compounds
q: Please give the documented pIC50 of CCc1nc(N)nc(N)c1C#CC(C)c1cc(OC)cc(-c2ccncc2)c1 (stereo not drawn)
a: 3.77

q: Read the entry COc1ccc(-c2ccccc2)cc1C(C)C#Cc1c(C)nc(N)nc1N (stereo not drawn) and write its reported pIC50.
a: 4.03

q: Give pIC50 for the following compound: COc1cc(C(C)C#Cc2c(C)nc(N)nc2N)cc(N2CCOCC2)c1 (stereo not drawn)
a: 3.31

q: Answer with the recorded pIC50 of CCc1nc(N)nc(N)c1C#CCc1cc(-c2ccncc2)ccc1OC only.
a: 3.70

q: Identify pIC50 associated with the compound COc1cc(-c2ccncc2)cc(C(C)C#Cc2c(C)nc(N)nc2N)c1 (stereo not drawn)
a: 3.63

q: For CCc1nc(N)nc(N)c1C#CCc1cc(OC)cc(-c2ccncc2)c1 , write its pIC50.
a: 3.33

API: the following record is the query input.
q: Retrieve pIC50 measured for CCc1nc(N)nc(N)c1C#CC(C)c1cc(-c2ccccc2)ccc1OC (stereo not drawn) and print it.
a: 4.11
